Target: DdlB from E. coli (Escherichia coli, UniProt P07862)
Construct: made in house; host or cells: E. coli
Test: Steady-state kinetics, Ki determination against DdlB (ATP varied)
Type: biochemical
Settings: Noncompetitive (full) model
pKi: −log10 of the molar value.
experimentalEndpoint: pKi

INSERT INTO measurements (compound, experimentalendpoint, reportedmeasurement) VALUES
  ('Cc1cccc(-c2ccnc3c(C(=O)O)cnn23)c1 [Compound 3]', 'pKi', 3.66);

====

Target: E. coli DdlB enzyme (D-alanine:D-alanine ligase) (Escherichia coli, UniProt P07862)
Construct: made in house; host or cells: E. coli
Test: biochemical
Details: residual activity of DdlB; fragment library screening; tested concentration 2.5 mM; read-out: DdlB RA
experimentalEndpoint: remaining activity at 2500 µM (%)

INSERT INTO measurements (compound, reportedmeasurement) VALUES
  ('OCc1cccs1', 95),
  ('Cc1c[nH]c(=O)[nH]c1=O', 91),
  ('c1ccc2c(c1)CCNC2', 77),
  ('COc1cc(C#N)ccc1C', 51),
  ('OCc1ccncc1', 100),
  ('O=C1Cc2cc([N+](=O)[O-])ccc2N1', 99),
  ('Oc1cccc2[nH]ccc12', 100),
  ('O=C(O)C1Cc2ccccc2N1 (centres unmarked)', 81),
  ('Fc1cc(Br)ccc1CN1CCCNCC1', 63),
  ('Clc1nccs1', 98),
  ('CCOC(=O)N1CCC(N)CC1', 98),
  ('Cc1cc(C)nc(NC#N)n1', 100),
  ('O=C(O)c1ccncc1F', 98),
  ('O=C(O)c1cccnc1F', 98);

====

Biological target: E. coli DdlB enzyme (D-alanine:D-alanine ligase) (Escherichia coli, UniProt P07862)
Construct: made in house; host or cells: E. coli
Assay: biochemical
Conditions: residual activity of DdlB; fragment library screening; tested concentration 2.5 mM; read-out: DdlB RA
experimentalEndpoint: remaining activity at 2500 µM (%)

INSERT INTO results (compound, measurementunits, reportedmeasurement) VALUES
  ('COc1cc(N)c(C#N)cc1OC', '%', 100),
  ('Nc1ccc2nsnc2c1', '%', 100),
  ('O=C(O)c1cc2ccccc2oc1=O', '%', 96),
  ('CC(=O)Oc1cccc(C(=O)O)c1', '%', 100),
  ('CC1=NCCS1', '%', 100),
  ('CC(O)c1ccccc1 (centres unmarked)', '%', 98),
  ('Nc1csc2nccnc12', '%', 100),
  ('Nc1ncn[nH]1', '%', 95),
  ('Cn1c(C(=O)O)cc2ccccc21', '%', 79),
  ('Cc1ccc(O)c(C(=O)O)c1', '%', 99),
  ('S=c1[nH]ncs1', '%', 81),
  ('COc1nc(Cl)nc(OC)n1', '%', 95),
  ('COc1ccc2ccc(O)cc2c1', '%', 73),
  ('Cc1cc(N)[nH]n1', '%', 98);

====

Overview of recorded remaining activity at 1900 µM for various compounds
Biological target: E. coli DdlB enzyme (D-alanine:D-alanine ligase) (Escherichia coli)
Construct: made in house; host or cells: E. coli
Experiment: biochemical
Conditions: tested concentration 1.9 mM; read-out: DdlB RA
Experimental: The fragment library was assayed in a DdlB inhibition assay, where fragments were tested for their ability to inhibit the D-Ala-adding activity of DdlB ligase. The orthophosphate formed during the enzymatic reaction was measured spectrophotometrically using malachite green reagent. A recombinant E. coli DdlB enzyme (D-alanine:D-alanine ligase) was expressed in E. coli[11]. […] The final DMSO concentration was 5%. […] All experiments were performed in duplicates. […]
experimentalEndpoint: remaining activity at 1900 µM (%)

INSERT INTO assay_data (compound, measurementunits, reportedmeasurement) VALUES
  ('CCc1cc(C2CCCN2S(=O)(=O)CC)on1 (centres unmarked)', '%', 98),
  ('CCCNc1c(-c2ccc(C(C)C)cc2)c(=O)c1=O', '%', 101),
  ('Cc1ccc(Nc2ncccc2S(N)(=O)=O)cc1', '%', 85),
  ('O=C(Nc1ccccc1)Nc1ccc2[nH]c(=O)oc2c1', '%', 75),
  ('NS(=O)(=O)c1ccc(NC(=O)C2CCCC2)cc1', '%', 62),
  ('CC(=O)N1C(C(=O)O)CSC1c1ccc(C)cc1 (centres unmarked)', '%', 90),
  ('CCn1nccc1C(=O)N1CC(n2ccnc2C)C1', '%', 95),
  ('Cc1c(-c2cc(C(=O)O)n3nccc3n2)cnn1C', '%', 86),
  ('COc1ccccc1Cc1noc([C@H]2CCCN2)n1', '%', 87),
  ('CNCCN1C(=O)C(C)SC1c1ccccc1C (centres unmarked)', '%', 72),
  ('COCC1CN(C(C)=O)CC12CCNCC2 (centres unmarked)', '%', 93),
  ('Cc1cc2nc(COC(=O)C(C)(C)C)cc(=O)n2o1', '%', 97),
  ('COc1ccc(Cc2ccc(F)cc2)cc1B(O)O', '%', 52),
  ('O=c1c(O)c(N2CCN(c3ccccc3)CC2)c1=O', '%', 96),
  ('O=c1c(NCc2ccccn2)c(-c2ccccc2)c1=O', '%', 96),
  ('Cc1cccc(Nc2c(-c3ccccc3)c(=O)c2=O)c1', '%', 43),
  ('CC1SC(c2ccc(Cl)c(Cl)c2)NC1=O (centres unmarked)', '%', 80),
  ('O=C(O)C1CSC(c2c(F)cc(F)cc2F)N1 (centres unmarked)', '%', 90),
  ('CNC(=O)CN1C(=O)CSC1c1ccc(F)cc1 (centres unmarked)', '%', 92),
  ('O=c1c(NCC2CCCO2)c(-c2ccccc2)c1=O (centres unmarked)', '%', 81);

====

Biological target: E. coli DdlB enzyme (D-alanine:D-alanine ligase) (Escherichia coli, UniProt P07862)
Construct: made in house; host or cells: E. coli
Experiment: biochemical
Conditions: tested concentration 2.4 mM; read-out: DdlB RA
Protocol: The fragment library was assayed in a DdlB inhibition assay, where fragments were tested for their ability to inhibit the D-Ala-adding activity of DdlB ligase. The orthophosphate formed during the enzymatic reaction was measured spectrophotometrically using malachite green reagent. A recombinant E. coli DdlB enzyme (D-alanine:D-alanine ligase) was expressed in E. coli[11]. […] The final DMSO concentration was 5%. […] All experiments were performed in duplicates. […]
// classify: if (remaining activity at 2400 µM < 90%) 1 else -1

INSERT INTO results (molecule, category) VALUES
  ('C#CC(=O)NC(C)c1c(C)nn(C)c1C (centres unmarked) [Compound T001-1381]', 1),
  ('Cc1nc(CCOC2CCCNC2)no1 (centres unmarked) [SC04-0106]', -1),
  ('COC(C(=O)NC1CC1)c1ccccc1 (centres unmarked) [Compound 8010-8989]', -1),
  ('O=C(O)c1cnc2ccc(F)cc2c1O [Compound Y042-3098]', 1),
  ('COC(=O)c1ccc(S(=O)(=O)O)o1 [Compound 4055-0046]', -1),
  ('O=C(O)C#CC12CC3CC(CC(C3)C1)C2 [Compound 8009-2654]', -1);

====

Biological target: E. coli DdlB enzyme (D-alanine:D-alanine ligase) (Escherichia coli, UniProt P07862)
Construct: made in house; host or cells: E. coli
Assay: biochemical
Conditions: residual activity; tested concentration 1.8 mM; read-out: DdlB RA
Each record is given t if its reported remaining activity at 1800 µM is strictly below 90%. Records at or above 90% are given f.

INSERT INTO assay_data (compound, category) VALUES
  ('C1CNCC(CCc2noc(C3CCOCC3)n2)C1 (stereo not drawn)', 'f'),
  ('Cc1ccccc1C(=O)N1CCCN(C)c2ccccc21', 't'),
  ('O=C1CC(c2ccccc2)c2snc(C(=O)O)c2N1 (stereo not drawn)', 'f'),
  ('O=c1[nH]c(O)ncc1S(=O)(=O)NC1CCCCC1', 'f'),
  ('O=C(O)c1ccccc1NC(=O)c1[nH]ncc1[N+](=O)[O-]', 'f');

====

The reader will find reported remaining activity at 2700 µM values listed item by item below.
Target: E. coli DdlB enzyme (D-alanine:D-alanine ligase) (Escherichia coli, UniProt P07862)
Construct: made in house; host or cells: E. coli
Test: biochemical
Details: tested concentration 2.7 mM; read-out: DdlB RA
experimentalEndpoint: remaining activity at 2700 µM (%)

INSERT INTO results (compound, experimentalendpoint, reportedmeasurement) VALUES
  ('CC(=O)N1CCC(CCc2noc(C)n2)C1 (stereo not drawn)', 'remaining activity at 2700 µM', 93),
  ('O=C(O)c1cnn(-c2ccccn2)c1', 'remaining activity at 2700 µM', 94),
  ('CN1CCCCC(CC(=O)O)C1=O (stereo not drawn)', 'remaining activity at 2700 µM', 95),
  ('Oc1nsnc1N1CCOCC1', 'remaining activity at 2700 µM', 88),
  ('O=C(O)c1ccccc1-c1ncc[nH]1', 'remaining activity at 2700 µM', 102),
  ('Cc1ccc(S(=O)(=O)NC2CC2)c(C)c1', 'remaining activity at 2700 µM', 94),
  ('CC1=CC(C)(C)N(C)c2cc(O)ccc21', 'remaining activity at 2700 µM', 88),
  ('N#Cc1ccccc1S(N)(=O)=O', 'remaining activity at 2700 µM', 88),
  ('O=C(O)C1C2CCC(C2)C1C(=O)NC1CC1 (stereo not drawn)', 'remaining activity at 2700 µM', 93);
